Reported Activity by item:
- Tested on: Aorta
- ASSAY NOTES: Vasorelaxant activity on Wistar rat aorta ring assessed as inhibition of phenylephrine-induced contraction at 100 uM in presence of endothelium
- Assay type: functional
- Set-up: scale not given: the % may be the effect or the level left
Answer shape: numeric part, then the unit.

These recorded examples may help you get a feel for the data.
INSERT INTO assay_data (compound, assay_system, readout_kind, test_value) VALUES
  ('COc1cc([C@H]2OC[C@]3(O)[C@@H](c4ccc(O[C@@H]5O[C@H](CO)[C@@H](O)[C@H](O)[C@H]5O)c(OC)c4)OC[C@]23O)ccc1O', 'Aorta', 'Activity', '20.4%'),
  ('COc1cc([C@H]2OC[C@]3(O)[C@@H](c4ccc(O)c(OC)c4)OC[C@H]23)ccc1O', 'Aorta', 'Activity', '24.4%'),
  ('COc1cc([C@H]2OC[C@@H]3[C@@H](c4ccc(O[C@@H]5O[C@H](CO)[C@@H](O)[C@H](O)[C@H]5O)c(OC)c4)OC[C@]23O)ccc1O', 'Aorta', 'Activity', '2.5%');

Now consider the entry below.
Sure, the documented Activity for COc1cc([C@H]2OC[C@]3(O)[C@@H](c4ccc(O)c(OC)c4)OC[C@]23O)ccc1O [PRINSEPIOL] is 29.3%

---

- ASSAY NOTES: Antioxidant activity against iodophenol-induced chemiluminescence by horseradish peroxidase/perborate/luminol system
- Format: functional
READOUT KIND: Activity (mM)
Numbers only; they are read as mM.

INSERT INTO measurements (molecule, readout_kind, test_value) VALUES
  ('COc1cc([C@H]2OC[C@@H]3[C@@H](c4ccc(O[C@@H]5O[C@H](CO)[C@@H](O)[C@H](O)[C@H]5O)c(OC)c4)OC[C@]23O)ccc1O', 'Activity', 1.44),
  ('COc1cc([C@H]2OC[C@]3(O)[C@@H](c4ccc(O[C@@H]5O[C@H](CO)[C@@H](O)[C@H](O)[C@H]5O)c(OC)c4)OC[C@]23O)ccc1O', 'Activity', 1.84),
  ('COc1cc([C@H]2OC[C@]3(O)[C@@H](c4ccc(O)c(OC)c4)OC[C@H]23)ccc1O', 'Activity', 6.31),
  ('COc1cc([C@H]2OC[C@]3(O)[C@@H](c4ccc(O)c(OC)c4)OC[C@]23O)ccc1O [PRINSEPIOL]', 'Activity', 6.7);

Sure, the documented Activity for C[C@@H]1O[C@@H](O[C@@H]2[C@@H](O)[C@H](OCCc3ccc(O)c(O)c3)O[C@H](CO)[C@H]2OC(=O)/C=C/c2ccc(O)c(O)c2)[C@H](O)[C@H](O)[C@H]1O is 8.2
